# Ki per record follows
# Test target: Bcl-xL (Homo sapiens)
# Assay protocol: Time Resolved-Fluorescence Resonance Energy Transfer (TR-FRET) binding assay, competition with probe F-Bak
# Settings: without HS; read-out: Bcl-xL Binding Ki
Readout name: Ki (pM)

* Cc1c(-c2ccc(N3CCc4cccc(C(=O)Nc5nc6ccccc6s5)c4C3)nc2C(=O)O)cnn1CC12CC3(C)CC(C)(C1)CC(OCCNC[C@H](O)[C@@H](O)CO)(C3)C2 | 11
* Cc1c(-c2ccc(N3CCc4cccc(C(=O)Nc5nc6cccnc6s5)c4C3)nc2C(=O)O)cnn1CC12CC3(C)CC(C)(C1)CC(OCCNCCS(=O)(=O)O)(C3)C2 | 6

----------
# Test target: Bcl-xL (Homo sapiens, UniProt Q07817)
# Sequence (Q07817 whole entry): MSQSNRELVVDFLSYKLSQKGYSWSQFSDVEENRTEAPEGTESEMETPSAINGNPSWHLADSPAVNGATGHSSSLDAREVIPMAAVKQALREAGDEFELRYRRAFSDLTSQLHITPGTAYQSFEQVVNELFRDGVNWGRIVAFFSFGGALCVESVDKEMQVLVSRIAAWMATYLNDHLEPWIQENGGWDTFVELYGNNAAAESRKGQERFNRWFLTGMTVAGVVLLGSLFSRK
# Assay protocol: Time Resolved-Fluorescence Resonance Energy Transfer (TR-FRET) binding assay, competition with probe F-Bak
# Settings: in the presence of 1% HS; read-out: Bcl-xL Binding Ki (nM, 1% HS)
Label Yes when Ki < 0.2 nM; otherwise No.

- CO[C@H]1O[C@@H](Cn2cc(CCCNCCOC34CC5(C)CC(C)(CC(Cn6ncc(-c7ccc(N8CCc9cccc(C(=O)Nc%10nc%11ccccc%11s%10)c9C8)nc7C(=O)O)c6C)(C5)C3)C4)nn2)[C@H](O)[C@@H](O)[C@@H]1O: No
- Cc1c(-c2ccc(-c3ccc4c(c3)N(C(=O)Nc3nc5ccccc5s3)CCO4)nc2C(=O)O)cnn1CC12CC3(C)CC(C)(C1)CC(OCCNCCS(=O)(=O)O)(C3)C2: Yes
- Cc1c(-c2ccc(N3CCc4cccc(C(=O)Nc5nc6ccccc6s5)c4C3)nc2C(=O)O)cnn1CC12CC3(C)CC(C)(C1)CC(OCCN(CCCC(=O)O)C1CCNCC1)(C3)C2: Yes
- Cc1c(-c2ccc(N3CCc4cccc(C(=O)Nc5nc6ccccc6s5)c4C3)nc2C(=O)O)cnn1CC12CC3(C)CC(C)(C1)CC(OCCNCC[C@@H](O)[C@H](O)[C@H](O)CO)(C3)C2: Yes
- Cc1c(-c2ccc(N3CCc4c(CC5O[C@H](CO)[C@@H](O)[C@H](O)[C@H]5O)ccc(C(=O)Nc5nc6ccccc6s5)c4C3)nc2C(=O)O)cnn1CC12CC3(C)CC(C)(C1)CC(OCCN)(C3)C2 (stereo partly shown): Yes
- Cc1c(-c2ccc(N3CCc4cccc(C(=O)Nc5nc6ccccc6s5)c4C3)nc2C(=O)O)cnn1CC12CC3(C)CC(C)(C1)CC(OCCN(C)C(=O)[C@H](N)CC(=O)O)(C3)C2: Yes
- Cc1c(-c2ccc(-c3ccc4nccc(C(=O)Nc5nc6ccccc6s5)c4c3)nc2C(=O)O)cnn1CC12CC3(C)CC(C)(C1)CC(OCCNCCS(=O)(=O)O)(C3)C2: No
- Cc1c(-c2ccc(-c3cnc4cccc(C(=O)Nc5nc6ccccc6s5)c4c3)nc2C(=O)O)cnn1CC12CC3(C)CC(C)(C1)CC(OCCNCCS(=O)(=O)O)(C3)C2: No
- Cc1c(-c2ccc(N3CCc4cccc(C(=O)Nc5nc6ccccc6s5)c4C3)nc2C(=O)O)cnn1CC12CC3(C)CC(C)(C1)CC(OCCN(CCS(=O)(=O)O)C(=O)[C@@H](N)CC(=O)O)(C3)C2: No

----------
# Test target: Bcl-xL (Homo sapiens, UniProt Q07817)
# Assay protocol: Time Resolved-Fluorescence Resonance Energy Transfer (TR-FRET) binding assay, competition with probe F-Bak
# Settings: without HS; read-out: Bcl-xL Binding Ki
Readout name: Ki

* Cc1c(-c2ccc(N3CCc4cccc(C(=O)Nc5nc6ccccc6s5)c4C3)nc2C(=O)O)cnn1CC12CC3(C)CC(C)(C1)CC(SCCNCCS(=O)(=O)O)(C3)C2 | 130 pM
* Cc1c(-c2ccc(N3CCc4cccc(C(=O)Nc5nc6ccccc6s5)c4C3)nc2C(=O)O)cnn1CC12CC3(C)CC(C)(C1)CC(OCCN(C)C(=O)[C@H](N)CC(=O)O)(C3)C2 | < 1 pM
* Cc1c(-c2ccc(-c3ccc4c(c3)N(C(=O)Nc3nc5ccccc5s3)CCC4)nc2C(=O)O)cnn1CC12CC3(C)CC(C)(C1)CC(OCCNCCC(=O)O)(C3)C2 | < 1 pM
* Cc1c(-c2ccc(N3CCc4cccc(C(=O)Nc5nc6ccccc6s5)c4C3)nc2C(=O)O)cnn1CC12CC3(C)CC(C)(C1)CC(OCCN(CCC(=O)O)C1CCNCC1)(C3)C2 | < 1 pM
* Cc1c(-c2ccc(N3CCc4cccc(C(=O)Nc5nc6ccccc6s5)c4C3)nc2C(=O)O)cnn1CC12CC3(C)CC(C)(C1)CC(OCCNC(=O)[C@@H](N)CS(=O)(=O)O)(C3)C2 | 3 pM
* Cc1c(-c2ccc(-c3ccc4cccc(C(=O)Nc5nc6ccccc6s5)c4c3)nc2C(=O)O)cnn1CC12CC3(C)CC(C)(C1)CC(OCCNCCS(=O)(=O)O)(C3)C2 | < 1 pM
* Cc1c(-c2ccc(N3CCc4cccc(C(=O)Nc5nc6ccccc6s5)c4C3)nc2C(=O)O)cnn1CC12CC3(C)CC(C)(C1)CC(OCCNCCP(=O)(O)O)(C3)C2 | < 1 pM
* Cc1c(-c2ccc(N3CCc4cccc(C(=O)Nc5nc6ccccc6s5)c4C3)nc2C(=O)O)cnn1CC12CC3(C)CC(C)(C1)CC(OCCN(C)C(=O)[C@@H](N)CCCCN(C)C)(C3)C2 | < 10 pM

All figures here come from patent US20240058450A1.
